Molecular target: T1, cynomolgus monkey 4-1BB on CHO-K1 cells (cynomolgus monkey)
T1 chain: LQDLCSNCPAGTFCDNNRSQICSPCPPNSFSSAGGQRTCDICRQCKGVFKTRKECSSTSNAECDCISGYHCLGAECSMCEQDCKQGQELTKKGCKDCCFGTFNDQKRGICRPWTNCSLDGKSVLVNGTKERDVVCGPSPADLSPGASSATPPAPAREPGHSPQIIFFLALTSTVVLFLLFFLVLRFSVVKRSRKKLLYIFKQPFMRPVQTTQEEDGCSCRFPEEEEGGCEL
Test: FACS; FIG. 12K
reported metric: EC50 (nM)

The cases that follow already have their EC50 on record.
[[record]]
binder = "PR007297 (antibody, V domains shown) VH: EVQLVESGGGLVKPGGSLRLSCAASGFTFSDYYMSWIRQAPGKGLEWVSYISRSGSTIYYADSVKGRFTISRDNAKNSLYLQMNSLRAEDTAVYYCARVRPGGSGNYWDWFDPWGQGTLVTVSS"
unit_annotation = "nM"
measured_result = 8.84

[[record]]
binder = "Utomilumab (antibody, V domains shown) VH: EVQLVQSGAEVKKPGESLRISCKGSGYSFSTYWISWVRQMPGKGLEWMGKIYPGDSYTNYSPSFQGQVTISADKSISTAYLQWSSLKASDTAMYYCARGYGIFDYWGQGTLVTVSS VL: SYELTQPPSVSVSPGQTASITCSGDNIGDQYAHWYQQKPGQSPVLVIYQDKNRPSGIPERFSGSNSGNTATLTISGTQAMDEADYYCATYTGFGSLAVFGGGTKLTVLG"
unit_annotation = "nM"
measured_result = 0.503


P: PR007295 (antibody, V domains shown) VH: EVQLVESGGGLVKPGGSLRLSCAASGFTFSDYYMSWIRQAPGKGLEWVSYISNNGSTIYYADSVKGRFTISRDNAKNSLYLQMNSLRAEDTAVYYCARVRPGGSGNYWDWFDPWGQGTMVTVSS
Q: PR007296 (antibody, V domains shown) VH: EVQLVESGGGLVKPGGSLRLSCVASGFTFSDYYMSWFRQAPGKGLEWVSYISGSGTTIDYADSVKGRFTISRDNAKNSLYLQMNSLRAEDTAVYYCAREREAVAGTLDFDNWGQGTPVTVSS
Ask: Could you please tell me which of these two has the higher EC50: P or Q ? In your reply, give the label of the chosen option.
Reply: P
